- target.or.test.system: ATP-binding cassette sub-family C member 5 (Homo sapiens, UniProt O15440)
- Sequence (O15440 whole entry): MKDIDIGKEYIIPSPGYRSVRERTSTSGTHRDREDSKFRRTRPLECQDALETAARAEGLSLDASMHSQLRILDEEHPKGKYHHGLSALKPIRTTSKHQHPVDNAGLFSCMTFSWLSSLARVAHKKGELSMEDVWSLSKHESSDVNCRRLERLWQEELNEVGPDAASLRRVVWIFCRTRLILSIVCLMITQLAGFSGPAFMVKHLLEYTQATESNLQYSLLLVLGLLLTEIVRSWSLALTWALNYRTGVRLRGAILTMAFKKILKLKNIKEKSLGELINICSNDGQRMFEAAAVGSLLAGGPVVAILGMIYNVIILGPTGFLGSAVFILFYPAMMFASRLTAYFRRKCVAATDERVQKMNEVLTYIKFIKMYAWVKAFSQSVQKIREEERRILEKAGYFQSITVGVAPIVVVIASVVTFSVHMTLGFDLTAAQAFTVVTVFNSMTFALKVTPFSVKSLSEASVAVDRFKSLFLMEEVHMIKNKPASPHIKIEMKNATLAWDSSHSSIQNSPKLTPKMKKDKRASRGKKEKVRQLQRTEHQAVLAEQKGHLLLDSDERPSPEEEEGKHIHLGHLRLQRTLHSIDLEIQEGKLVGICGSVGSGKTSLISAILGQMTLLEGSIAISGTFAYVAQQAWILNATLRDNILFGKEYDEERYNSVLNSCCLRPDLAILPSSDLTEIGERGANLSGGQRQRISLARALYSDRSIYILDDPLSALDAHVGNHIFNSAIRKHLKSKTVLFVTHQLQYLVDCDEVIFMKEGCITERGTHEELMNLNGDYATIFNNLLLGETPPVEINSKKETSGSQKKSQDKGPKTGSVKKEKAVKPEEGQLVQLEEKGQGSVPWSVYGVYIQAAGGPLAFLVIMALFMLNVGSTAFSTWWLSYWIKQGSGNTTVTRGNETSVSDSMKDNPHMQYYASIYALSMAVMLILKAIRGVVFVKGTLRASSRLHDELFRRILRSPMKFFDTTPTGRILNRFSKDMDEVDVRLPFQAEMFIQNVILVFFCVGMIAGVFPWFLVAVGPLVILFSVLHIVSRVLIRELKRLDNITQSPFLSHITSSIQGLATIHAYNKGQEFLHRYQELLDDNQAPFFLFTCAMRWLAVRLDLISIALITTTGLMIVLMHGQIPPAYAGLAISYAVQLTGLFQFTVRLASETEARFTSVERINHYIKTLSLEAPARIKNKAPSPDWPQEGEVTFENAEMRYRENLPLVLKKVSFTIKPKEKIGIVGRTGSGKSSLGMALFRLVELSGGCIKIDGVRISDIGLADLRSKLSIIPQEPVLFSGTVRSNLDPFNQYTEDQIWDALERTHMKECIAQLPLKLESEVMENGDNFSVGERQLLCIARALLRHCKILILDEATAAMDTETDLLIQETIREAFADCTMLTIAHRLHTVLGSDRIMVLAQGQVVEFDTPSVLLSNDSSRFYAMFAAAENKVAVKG
- protocol.summary: TP_TRANSPORTER: inhibition of PMEA efflux (PMEA: 1 uM) in MRP5-expressing MDCKII cells
metric.name: IC50

                                   compound                     target_or_test_system  metric_name  result_value
0  O=C1C(CC[S+]([O-])c2ccccc2)C(=O)N(c2ccccc2)N1c1ccccc1 (stereo unspecified)  ATP-binding cassette sub-family C member 5 (Homo sapiens, UniProt O15440)         IC50      < 100 µM
